src = paper PMC10700596

Protocol: in vivo
Type: in vivo, mice
Reported conditions: male, CD-1, mouse, plasma, ip, 10 mg/kg, mice, IP 10 mg/kg, plasma, 30 min, single animal, D=1; read-out: Final plasma concentration, individual sample
Parameter: concentration at 30 min (ng/mL)
Report only the number, with the unit ng/mL understood.

Input line: Form field: reported concentration at 30 min of O=C([O-])C1CCC2(CC1)CC(Nc1ncnc3[nH]c4c(F)cccc4c13)C2.[Na+] (stereo not shown)
Output line: 8130

---

Test system: wild-type EP4R (Homo sapiens, UniProt P35408)
Sequence (P35408 whole entry): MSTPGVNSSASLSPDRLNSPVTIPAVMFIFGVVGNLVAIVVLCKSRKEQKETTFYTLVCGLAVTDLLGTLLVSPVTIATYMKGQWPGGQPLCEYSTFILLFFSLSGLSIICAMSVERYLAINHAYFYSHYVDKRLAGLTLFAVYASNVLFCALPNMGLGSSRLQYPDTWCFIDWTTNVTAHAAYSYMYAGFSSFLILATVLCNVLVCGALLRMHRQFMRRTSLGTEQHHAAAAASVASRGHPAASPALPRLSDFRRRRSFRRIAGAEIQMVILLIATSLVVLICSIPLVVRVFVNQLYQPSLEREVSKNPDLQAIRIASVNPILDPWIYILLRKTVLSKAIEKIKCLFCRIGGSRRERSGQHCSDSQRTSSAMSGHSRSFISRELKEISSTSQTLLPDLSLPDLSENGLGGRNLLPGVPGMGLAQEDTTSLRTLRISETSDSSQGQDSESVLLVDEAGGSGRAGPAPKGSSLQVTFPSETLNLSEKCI
Protocol: cell-based
Parameter: pKi
Conceptually, pKi converts a concentration in mol/L into minus its log10.

{"Compound": "Cc1cc(C(=O)N[C@H]2CC[C@H](C(=O)O)CCC2(F)F)c(C)n1-c1ccccc1", "pKi": 6.17}
{"Compound": "O=C(O)C1CCC2(CC1)CC(Nc1ncnc3[nH]c4ccc(Br)cc4c13)C2 (stereo not shown)", "pKi": 7.57}
{"Compound": "Cn1c2ccccc2c2c(NC3CC4(CCC(C(=O)O)CC4)C3)ncnc21 (stereo not shown)", "pKi": 6.79}

Next:
Input line: Missing value: pKi, wild-type EP4R (Homo sapiens, UniProt P35408), entry O=C(O)C1CCC2(CC1)CC(Nc1ncnc3[nH]c4cc(F)ccc4c13)C2 (stereo not shown) . Fill in?
Output line: 7.51

---

Test system: EP4R (Homo sapiens, UniProt P35408)
Construct: Tango fusion cassette (only 'tango' is printed); expressed in transfected cells; host or cells: HTLA cells (tTA-dependent luciferase reporter, β-arrestin2-TEV fusion)
Protocol: biochemical
Format: binding
Reported conditions: 3H-PGE2; read-out: Radiologand displacement Ki
Parameter: Ki (µM)
Report only the number, with the unit µM understood.

Input line: Form field: reported Ki of O=C(O)C1CCC2(CC1)CC(Nc1ncnc3[nH]c4c(F)cccc4c13)C2 (stereo not shown) [Compound 74]
Output line: 0.366

---

Protocol: in vivo
Type: in vivo, mice
Reported conditions: male, CD-1, mouse, plasma, ip, 10 mg/kg, mice, IP 10 mg/kg, plasma, 480 min, individual animals; read-out: Plasma concentration, Final (individual sample)
Parameter: concentration at 480 min (ng/mL)
Report only the number, with the unit ng/mL understood.

Input line: Form field: reported concentration at 480 min of CCc1nc2c(C)nc(C)cc2n1-c1ccc(CCNC(=O)NS(=O)(=O)c2ccc(C)cc2)cc1 [Grapiprant, reference compound]
Output line: 0

---

Protocol: in vivo
Assay type: in vivo, mice
Reported conditions: male, CD-1, mouse, plasma, po, 30 mg/kg, mice, PO 30 mg/kg, plasma, 1440 min; read-out: Plasma concentration C (mean)
Parameter: concentration at 1440 min

Input line: Form field: reported concentration at 1440 min of O=C([O-])C1CCC2(CC1)CC(Nc1ncnc3[nH]c4c(F)cccc4c13)C2.[Na+] (stereo not shown)
Output line: 187 ng/mL

---

Protocol: in vivo
Assay type: in vivo, mice
Reported conditions: male, CD-1, mouse, plasma, ip, 10 mg/kg, mice, IP 10 mg/kg, plasma, 15 min, mean; read-out: Plasma concentrations of cmpd 7827_0016 in mice following IP (10 mg/kg) administration, C
Parameter: concentration at 15 min (ng/mL)
Report only the number, with the unit ng/mL understood.

Input line: Form field: reported concentration at 15 min of O=C(O)C1CCC2(CC1)CC(Nc1ncnc3[nH]c4c(F)cccc4c13)C2 (stereo not shown)
Output line: 4580

---

Protocol: in vivo
Type: in vivo, mice
Reported conditions: male, CD-1, mouse, plasma, ip, 10 mg/kg, mice, IP 10 mg/kg, plasma, 360 min, individual animals; read-out: Plasma concentration, Final
Parameter: concentration at 360 min (ng/mL)
Report only the number, with the unit ng/mL understood.

Input line: Form field: reported concentration at 360 min of O=C(O)C1CCC2(CC1)CC(Nc1ncnc3[nH]c4c(F)cccc4c13)C2 (stereo not shown)
Output line: 1220

---

Protocol: in vivo
Assay type: in vivo, mice
Reported conditions: male, CD-1, mouse, brain, ip, 10 mg/kg, mice, IP 10 mg/kg, brain, 30 min, mean; read-out: Brain concentrations of cmpd 7827_0016 in mice following IP (10 mg/kg) administration, C
Parameter: concentration at 30 min (ng/g)
Report only the number, with the unit ng/g understood.

Input line: Form field: reported concentration at 30 min of O=C(O)C1CCC2(CC1)CC(Nc1ncnc3[nH]c4c(F)cccc4c13)C2 (stereo not shown)
Output line: 203

---

Protocol: in vivo
Type: in vivo, mice
Reported conditions: male, CD-1, mouse, plasma, ip, 10 mg/kg, mice, IP 10 mg/kg, plasma, 30 min, mean of 3; read-out: Plasma concentration C (mean)
Parameter: concentration at 30 min

Input line: Form field: reported concentration at 30 min of CCc1nc2c(C)nc(C)cc2n1-c1ccc(CCNC(=O)NS(=O)(=O)c2ccc(C)cc2)cc1 [Grapiprant, reference compound]
Output line: 734 ng/mL

---

Protocol: in vivo
Format: in vivo, mice
Reported conditions: male, CD-1, mouse, CSF, ip, 10 mg/kg, mice, IP 10 mg/kg, CSF, 360 min, mean of 3; read-out: CSF concentration C (mean)
Parameter: concentration at 360 min
# do not omit the unit; it follows the number

Input line: Form field: reported concentration at 360 min of CCc1nc2c(C)nc(C)cc2n1-c1ccc(CCNC(=O)NS(=O)(=O)c2ccc(C)cc2)cc1 [Grapiprant, reference compound]
Output line: 0 ng/mL

---

Protocol: in vivo
Format: in vivo, mice
Reported conditions: male, CD-1, mouse, plasma, ip, 10 mg/kg, mice, IP 10 mg/kg, plasma, 120 min, mean of 3; read-out: Plasma concentration C (mean)
Parameter: concentration at 120 min (ng/mL)
Report only the number, with the unit ng/mL understood.

Input line: Form field: reported concentration at 120 min of CCc1nc2c(C)nc(C)cc2n1-c1ccc(CCNC(=O)NS(=O)(=O)c2ccc(C)cc2)cc1 [Grapiprant, reference compound]
Output line: 304

---

Protocol: in vivo
Type: in vivo, mice
Reported conditions: male, CD-1, mouse, brain, ip, 10 mg/kg, mice, IP 10 mg/kg, brain, 360 min, mean of 3; read-out: Brain concentration C (mean)
Parameter: concentration at 360 min
# do not omit the unit; it follows the number

Input line: Form field: reported concentration at 360 min of CCc1nc2c(C)nc(C)cc2n1-c1ccc(CCNC(=O)NS(=O)(=O)c2ccc(C)cc2)cc1 [Grapiprant, reference compound]
Output line: 0 ng/g

---

Protocol: in vivo
Assay type: in vivo, mice
Reported conditions: male, CD-1, mouse, brain, ip, 10 mg/kg, mice, IP 10 mg/kg, brain, 480 min, mean; read-out: Brain concentrations of cmpd 7827_0016 in mice following IP (10 mg/kg) administration, C
Parameter: concentration at 480 min (ng/g)
Report only the number, with the unit ng/g understood.

Input line: Form field: reported concentration at 480 min of O=C(O)C1CCC2(CC1)CC(Nc1ncnc3[nH]c4c(F)cccc4c13)C2 (stereo not shown)
Output line: 26.7

---

Protocol: in vivo
Format: in vivo, mice
Reported conditions: male, CD-1, mouse, plasma, ip, 10 mg/kg, mice, IP 10 mg/kg, plasma, 480 min, mean; read-out: Plasma concentrations of cmpd 7827_0016 in mice following IP (10 mg/kg) administration, C
Parameter: concentration at 480 min
# do not omit the unit; it follows the number

Input line: Form field: reported concentration at 480 min of O=C(O)C1CCC2(CC1)CC(Nc1ncnc3[nH]c4c(F)cccc4c13)C2 (stereo not shown)
Output line: 1230 ng/mL

---

Protocol: in vivo
Format: in vivo, mice
Reported conditions: male, CD-1, mouse, plasma, iv, 10 mg/kg, mice, IV 10 mg/kg, plasma, 1440 min; read-out: Plasma concentration C (mean)
Parameter: concentration at 1440 min (ng/mL)
Report only the number, with the unit ng/mL understood.

Input line: Form field: reported concentration at 1440 min of O=C([O-])C1CCC2(CC1)CC(Nc1ncnc3[nH]c4c(F)cccc4c13)C2.[Na+] (stereo not shown) [Compound 77]
Output line: 43.2

---

Protocol: in vivo
Format: in vivo, mice
Reported conditions: male, CD-1, mouse, plasma, ip, 10 mg/kg, mice, IP 10 mg/kg, plasma, 360 min, single animal, D=1; read-out: Final plasma concentration, individual sample
Parameter: concentration at 360 min (ng/mL)
Report only the number, with the unit ng/mL understood.

Input line: Form field: reported concentration at 360 min of O=C([O-])C1CCC2(CC1)CC(Nc1ncnc3[nH]c4c(F)cccc4c13)C2.[Na+] (stereo not shown) [Compound 77]
Output line: 1660

---

Protocol: in vivo
Format: in vivo, mice
Reported conditions: male, CD-1, mouse, plasma, iv, 10 mg/kg, mice, IV 10 mg/kg, plasma, 60 min, single animals; read-out: Plasma concentration, Final (individual mouse)
Parameter: concentration at 60 min (ng/mL)
Report only the number, with the unit ng/mL understood.

Input line: Form field: reported concentration at 60 min of O=C([O-])C1CCC2(CC1)CC(Nc1ncnc3[nH]c4c(F)cccc4c13)C2.[Na+] (stereo not shown) [Compound 77]
Output line: 11000
